Catalogue of compounds with associated melting point

# structureAsSmiles, endpointName, reportedValue
data = [
    ("O=C(Nc1ccc2cnc(Nc3ccc(N4CCNCC4)cc3)nc2n1)N1CCOCC1", "melting point", "190 °C (dec.)"),
]

Ask: Dear colleague, I am looking for the recorded melting point of the following compound: `CCCNC(=O)Nc1cc(C)c2cnc(Nc3ccc(N4CCNCC4)cc3)nc2n1`
Result: 223 to 225 °C

Ask: Dear colleague, I am looking for the recorded melting point of the following compound: `CN1CCN(C(=O)Nc2ccc3cnc(Nc4ccc(N5CCNCC5)cc4)nc3n2)CC1`
Result: 200 °C (dec.)

Ask: Dear colleague, I am looking for the recorded melting point of the following compound: `CN(C(=O)Nc1ccc2cnc(Nc3ccc(N4CCNCC4)cc3)nc2n1)C1CCCCC1`
Result: 177 °C (dec.)

Ask: Dear colleague, I am looking for the recorded melting point of the following compound: `CC(C)(C)OC(=O)N1CCN(c2ccc(Nc3ncc4ccc(NC(=O)NC5CCCCC5)nc4n3)cc2)CC1`
Result: 241 °C (dec.)

Ask: Dear colleague, I am looking for the recorded melting point of the following compound: `Cc1cc(NC(=O)NC2CCCC2)nc2nc(Nc3ccc(N4CCNCC4)cc3)ncc12`
Result: 234 °C (dec.)

====

Catalogue of compounds with associated IC50
- targetDesc: PDGF-β receptor tyrosine kinase (PDGFr) (Mus musculus, UniProt P05622)
- Construct: amplify a fragment of DNA that codes for the intracellular tyrosine kinase domain; crude cell lysate used
- Sequence (P05622 599-961 limits assumed): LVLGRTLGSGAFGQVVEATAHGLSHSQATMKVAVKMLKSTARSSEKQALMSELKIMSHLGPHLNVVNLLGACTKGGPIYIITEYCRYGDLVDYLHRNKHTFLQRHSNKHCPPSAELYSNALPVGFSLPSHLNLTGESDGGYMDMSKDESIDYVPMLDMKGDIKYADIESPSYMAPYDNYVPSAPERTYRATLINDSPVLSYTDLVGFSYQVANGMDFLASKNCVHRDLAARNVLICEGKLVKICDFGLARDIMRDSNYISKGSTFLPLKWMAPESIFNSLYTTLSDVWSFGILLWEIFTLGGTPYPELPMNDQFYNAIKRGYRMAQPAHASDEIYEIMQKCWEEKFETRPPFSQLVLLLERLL
- experimentalDetails: PDGF Receptor Tyrosine Kinase Assay
- cond: glutamate-tyrosine co-polymer substrate; read-out: Inhibition of Tyrosine Kinases: IC50 in parenthesis PDGFr
Express the result in nM but write the number alone.

# structureAsSmiles, IC50 / nM
records = [
    ("CN(C(=O)NC1CCCCC1)c1ccc2cnc(Nc3ccc(N4CCNCC4)cc3)nc2n1", 536),
]

Ask: Dear colleague, I am looking for the recorded IC50 of the following compound: `O=C(Nc1nc2nc(Nc3ccc(N4CCNCC4)cc3)ncc2cc1F)NC1CCCCC1`
Result: 131

Ask: Dear colleague, I am looking for the recorded IC50 of the following compound: `Cc1cc2cnc(Nc3ccc(N4C[C@@H](C)N[C@@H](C)C4)cc3)nc2nc1NC(=O)NC(C)(C)C`
Result: 81

Ask: Dear colleague, I am looking for the recorded IC50 of the following compound: `CC(C)(C)NC(=O)Nc1ccc2cnc(Nc3ccc(N4CCNCC4)cc3)nc2n1`
Result: 593

Ask: Dear colleague, I am looking for the recorded IC50 of the following compound: `O=C(Nc1nc2nc(Nc3ccc(N4CCNCC4)cc3)ncc2cc1Br)NC1CCCCC1`
Result: 33

====

- targetDesc: cdk2/cyclinA (Homo sapiens)
- experimentalDetails: Cyclin dependent kinase 2 assay (cdk2/cyclinA), 32P incorporation, filter plate
- cond: retinoblastoma substrate, 12 mM ATP, 25° C., 15 minutes; read-out: Inhibition of Cdks: IC50 Cdk2/A
pIC50: −log10 of the molar value.
Respond with Satisfied for pIC50 values of 7 and above, Not satisfied for values below.

Some entries whose results are on file:
# structureAsSmiles, class
data = [
    ("C[C@@H]1CN(c2ccc(Nc3ncc4ccc(NC(=O)NC5CCCCC5)nc4n3)cc2)C[C@H](C)N1", "Satisfied"),
    ("C[C@@H]1CN(c2ccc(Nc3ncc4ccc(N(C)C(=O)NC5CCCCC5)nc4n3)cc2)C[C@H](C)N1", "Not satisfied"),
    ("CCOC(=O)c1cc2cnc(Nc3ccc(N4CCNCC4)cc3)nc2nc1NC(=O)NC(C)(C)C", "Not satisfied"),
    ("CNC(=O)Nc1cc(C)c2cnc(Nc3ccc(N4CCNCC4)cc3)nc2n1", "Not satisfied"),
    ("C[C@@H]1CN(c2ccc(Nc3ncc4cc(F)c(NC(=O)NC5CCCCC5)nc4n3)cc2)C[C@H](C)N1", "Not satisfied"),
    ("CC(=O)N1CCN(c2ccc(Nc3ncc4ccc(NC(=O)NCCCN5CCOCC5)nc4n3)cc2)CC1", "Not satisfied"),
]

Ask: Record `Cc1c(F)c(NC(=O)NC(C)C)nc2nc(Nc3ccc(N4CCNCC4)cc3)ncc12` ; criterion: pIC50 no lower than 7. Met?
Result: Not satisfied

Ask: Record `Cc1cc2cnc(Nc3ccc(N4C[C@@H](C)N[C@@H](C)C4)cc3)nc2nc1NC(=O)NC1CCCCC1` ; criterion: pIC50 no lower than 7. Met?
Result: Not satisfied

====

- targetDesc: cdk2/cyclinE (Homo sapiens)
- experimentalDetails: Cyclin dependent kinase 2 assay (cdk2/cyclinE), 32P incorporation, filter plate
- cond: retinoblastoma substrate, 12 mM ATP, 25° C., 15 minutes; read-out: Inhibition of Cdks: IC50 Cdk2/E
- Text: Cyclin Dependent Kinase 1 and 2 Assays (cdk1/cyclinB, cdk2/cyclinA, cdk2/cyclinE) […]
Catalogue of molecules with associated pIC50
The read-out pIC50 is expressed as -log10 of concentration in moles per litre.

Ask: Dear colleague, I am looking for the recorded pIC50 of the following molecule: `CC1(C)CN(c2ccc(Nc3ncc4ccc(NC(=O)NC5CCCCC5)nc4n3)cc2)CCN1`
Result: 7.29

Ask: Dear colleague, I am looking for the recorded pIC50 of the following molecule: `C[C@@H]1CN(c2ccc(Nc3ncc4ccc(N(C)C(=O)NC5CCCCC5)nc4n3)cc2)C[C@H](C)N1`
Result: 6.36

Ask: Dear colleague, I am looking for the recorded pIC50 of the following molecule: `O=C(NCCCO)Nc1ccc2cnc(Nc3ccc(N4CCNCC4)cc3)nc2n1`
Result: 5.49

====

- targetDesc: cdk1/cyclinB (Homo sapiens)
- Sequence (P06493 whole entry, species assumed): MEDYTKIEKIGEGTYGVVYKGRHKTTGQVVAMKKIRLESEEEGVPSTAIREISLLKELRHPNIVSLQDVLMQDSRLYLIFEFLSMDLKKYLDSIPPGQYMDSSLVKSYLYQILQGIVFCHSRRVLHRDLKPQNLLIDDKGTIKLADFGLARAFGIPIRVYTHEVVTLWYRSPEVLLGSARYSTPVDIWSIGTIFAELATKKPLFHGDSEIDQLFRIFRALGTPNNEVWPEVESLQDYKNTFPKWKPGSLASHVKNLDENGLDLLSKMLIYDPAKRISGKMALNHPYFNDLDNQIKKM
- Sequence (P14635 whole entry partner, species assumed): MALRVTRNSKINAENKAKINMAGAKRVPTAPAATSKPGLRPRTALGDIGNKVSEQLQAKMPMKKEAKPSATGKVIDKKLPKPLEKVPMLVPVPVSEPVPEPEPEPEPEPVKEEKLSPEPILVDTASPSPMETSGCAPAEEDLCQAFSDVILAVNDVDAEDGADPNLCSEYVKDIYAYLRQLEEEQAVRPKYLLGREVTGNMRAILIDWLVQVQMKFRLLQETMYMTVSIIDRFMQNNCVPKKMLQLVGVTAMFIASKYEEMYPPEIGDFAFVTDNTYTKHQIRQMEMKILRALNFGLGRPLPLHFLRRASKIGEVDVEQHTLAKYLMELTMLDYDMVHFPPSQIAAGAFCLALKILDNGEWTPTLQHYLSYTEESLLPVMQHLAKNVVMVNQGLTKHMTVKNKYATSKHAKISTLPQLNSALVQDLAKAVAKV
- experimentalDetails: Cyclin dependent kinase 1 assay (cdk1/cyclinB), 32P incorporation, filter plate
- Assay type: biochemical
- cond: retinoblastoma substrate, 12 mM ATP, 25° C., 15 minutes; read-out: Inhibition of Cdks: IC50 Cdk1/B
endpointName: IC50 (µM)
Express the result in µM but write the number alone.

Example entries and their recorded answers appear below.
# structureAsSmiles, targetDesc, endpointName, uom, reportedValue
records = [
    ("CC(C)(C)NC(=O)Nc1ccc2cnc(Nc3ccc(N4CCNCC4)cc3)nc2n1", "cdk1/cyclinB (Homo sapiens)", "IC50", "µM", 0.219),
    ("O=C(Nc1ccc2cnc(Nc3ccc(N4CCNCC4)cc3)nc2n1)NC1CCCCC1", "cdk1/cyclinB (Homo sapiens)", "IC50", "µM", 0.027),
]

Ask: Param readout = IC50; param system = cdk1/cyclinB (Homo sapiens); param query = `CC(C)[C@H](CO)NC(=O)Nc1ccc2cnc(Nc3ccc(N4CCNCC4)cc3)nc2n1` ; response: value
Result: 0.418

Ask: Param readout = IC50; param system = cdk1/cyclinB (Homo sapiens); param query = `CCN(C(=O)NC(C)(C)C)c1ccc2cnc(Nc3ccc(N4C[C@@H](C)N[C@@H](C)C4)cc3)nc2n1` ; response: value
Result: 2.42

====

Counter-ions that a name gives are not always drawn.
Catalogue of compounds with associated melting point

Example entries and their recorded answers appear below.
# compound, melting point
data = [
    ("O=C(Nc1ccc2cnc(Nc3ccc(N4CCNCC4)cc3)nc2n1)NC1CCCC1 (as salt: salt)", "210 to 213 °C (dec.)"),
    ("Cc1cc(NC(=O)NC2CCCCC2)nc2nc(Nc3ccc(N4CCNCC4)cc3)ncc12", "238 °C (dec.)"),
]

Ask: Dear colleague, I am looking for the recorded melting point of the following compound: CC(C)(C)NC(=O)Nc1ccc2cnc(Nc3ccc(N4CCNCC4)cc3)nc2n1 (as salt: salt)
Result: 215 °C (dec.)

Ask: Dear colleague, I am looking for the recorded melting point of the following compound: `C[C@@H]1CN(c2ccc(Nc3ncc4ccc(N(C)C(=O)NC5CCCCC5)nc4n3)cc2)C[C@H](C)N1`
Result: 170 °C (dec.)

Ask: Dear colleague, I am looking for the recorded melting point of the following compound: `CNC(=O)Nc1cc(C)c2cnc(Nc3ccc(N4CCNCC4)cc3)nc2n1`
Result: 204 to 206 °C (dec.)

Ask: Dear colleague, I am looking for the recorded melting point of the following compound: `C[C@@H]1CN(c2ccc(Nc3ncc4cc(F)c(NC(=O)NC5CCCCC5)nc4n3)cc2)C[C@H](C)N1`
Result: 227 to 229 °C

Ask: Dear colleague, I am looking for the recorded melting point of the following compound: `O=C(Nc1nc2nc(Nc3ccc(N4CCNCC4)cc3)ncc2cc1Br)NC1CCCCC1`
Result: 195 °C (dec.)

====

- targetDesc: cdk4/cyclinD (Homo sapiens)
- Sequence (P11802 whole entry, species assumed): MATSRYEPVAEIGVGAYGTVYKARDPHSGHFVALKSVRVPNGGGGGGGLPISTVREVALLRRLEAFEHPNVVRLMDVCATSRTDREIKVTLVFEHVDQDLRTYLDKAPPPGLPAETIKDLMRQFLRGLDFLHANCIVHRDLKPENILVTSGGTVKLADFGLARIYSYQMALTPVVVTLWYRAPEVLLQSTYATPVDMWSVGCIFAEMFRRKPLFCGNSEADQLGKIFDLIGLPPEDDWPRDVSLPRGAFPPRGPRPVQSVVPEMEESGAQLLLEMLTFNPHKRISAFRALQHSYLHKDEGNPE
- Sequence (P24385 whole entry partner, species assumed): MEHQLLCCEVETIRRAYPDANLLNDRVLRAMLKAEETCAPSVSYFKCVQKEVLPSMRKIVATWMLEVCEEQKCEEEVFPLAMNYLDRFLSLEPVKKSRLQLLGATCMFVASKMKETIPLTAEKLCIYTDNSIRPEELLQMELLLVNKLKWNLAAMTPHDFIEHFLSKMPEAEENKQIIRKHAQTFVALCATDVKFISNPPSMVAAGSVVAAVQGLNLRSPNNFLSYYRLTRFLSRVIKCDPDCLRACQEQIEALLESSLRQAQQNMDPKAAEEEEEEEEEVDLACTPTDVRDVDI
- experimentalDetails: Cyclin Dependent Kinase 4 (cdk-4) Assay, 32P incorporation, filter plate
- cond: retinoblastoma substrate, 25 μM ATP, 25° C., 15 minutes; read-out: Inhibition of Cdks: IC50 Cdk4D
pIC50: −log10 of the molar value.
Respond with T for pIC50 values of 7 and above, F for values below.

# structureAsSmiles, class
data = [
    ("Cc1cc(NC(=O)NC2CCCC2)nc2nc(Nc3ccc(N4CCNCC4)cc3)ncc12", "F"),
]

Ask: Record `CN(C(=O)NC1CCCCC1)c1ccc2cnc(Nc3ccc(N4CCNCC4)cc3)nc2n1` ; criterion: pIC50 no lower than 7. Met?
Result: T

Ask: Record `CNC(=O)Nc1nc2nc(Nc3ccc(N4CCNCC4)cc3)ncc2cc1Br` ; criterion: pIC50 no lower than 7. Met?
Result: F

Ask: Record `C[C@@H]1CN(c2ccc(Nc3ncc4cc(Br)c(NC(=O)NC5CCCCC5)nc4n3)cc2)C[C@H](C)N1` ; criterion: pIC50 no lower than 7. Met?
Result: F

Ask: Record `Cc1cc2cnc(Nc3ccc(N4C[C@@H](C)N[C@@H](C)C4)cc3)nc2nc1NC(=O)NC(C)C` ; criterion: pIC50 no lower than 7. Met?
Result: F

Ask: Record `CN(C(=O)Nc1ccc2cnc(Nc3ccc(N4CCNCC4)cc3)nc2n1)C1CCCCC1` ; criterion: pIC50 no lower than 7. Met?
Result: F

Ask: Record `C[C@@H]1CN(c2ccc(Nc3ncc4cc(Cl)c(NC(=O)NC(C)(C)C)nc4n3)cc2)C[C@H](C)N1` ; criterion: pIC50 no lower than 7. Met?
Result: F

Ask: Record `O=C(Nc1ccc2cnc(Nc3ccc(N4CCNCC4)cc3)nc2n1)N(CCO)CCO` ; criterion: pIC50 no lower than 7. Met?
Result: F

Ask: Record `CN(C)CCNC(=O)Nc1ccc2cnc(Nc3ccc(F)cc3)nc2n1` ; criterion: pIC50 no lower than 7. Met?
Result: F

Ask: Record `O=C(NCCO)Nc1ccc2cnc(Nc3ccc(F)cc3)nc2n1` ; criterion: pIC50 no lower than 7. Met?
Result: F

The origin of these recorded values is patent US7053070B2.
